Hi there, I'd appreciate the recorded Ki for every entry that follows.
Molecular target: hCA XII (Homo sapiens)
Construct: made in house
Sequence (O43570 25-354): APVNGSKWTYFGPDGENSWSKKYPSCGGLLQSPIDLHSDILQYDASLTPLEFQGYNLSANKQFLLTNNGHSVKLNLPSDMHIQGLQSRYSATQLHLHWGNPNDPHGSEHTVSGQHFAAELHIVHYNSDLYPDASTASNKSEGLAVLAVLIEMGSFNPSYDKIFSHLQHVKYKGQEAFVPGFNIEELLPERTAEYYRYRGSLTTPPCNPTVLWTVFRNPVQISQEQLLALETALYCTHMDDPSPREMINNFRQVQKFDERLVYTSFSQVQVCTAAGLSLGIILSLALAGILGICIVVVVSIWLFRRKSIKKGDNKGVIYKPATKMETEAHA
Test: stopped-flow CO2 hydrase assay, hCA XII
Assay type: biochemical
Settings: recombinant enzyme, stopped-flow CO2 hydrase assay, mean from 3 different assays, errors ± 5–10%
Protocol: An Applied Photophysics stopped-flow instrument has been used for assaying the CA-catalysed CO2 hydration activity. Phenol red (at a concentration of 0.2 mM) has been used as indicator, working at the absorbance maximum of 557 nm, with 20 mM Hepes (pH 7.5) as buffer, and 20 mM Na2SO4 (for maintaining constant the ionic strength), following the initial rates of the CA-catalysed CO2 hydration reaction for a period of 10–100 s. […]

Fetch value of Ki on hCA XII (Homo sapiens) for `NS(=O)(=O)c1ccc2nc(-c3ccccc3)[nH]c2c1` . 78.9 nM

Fetch value of Ki on hCA XII (Homo sapiens) for `NC(=O)c1ccc2nc(-c3ccc(O)c(C(=O)O)c3)[nH]c2c1` . > 10000 nM

Fetch value of Ki on hCA XII (Homo sapiens) for `CCNS(=O)(=O)c1ccc2nc(-c3ccc(O)c(C(=O)OC)c3)[nH]c2c1` . 813 nM

Fetch value of Ki on hCA XII (Homo sapiens) for `NS(=O)(=O)c1ccc2nc(-c3ccc(C(=O)O)cc3)[nH]c2c1` . 57 nM

Fetch value of Ki on hCA XII (Homo sapiens) for `COC(=O)c1ccc(-c2nc3ccc(S(N)(=O)=O)cc3[nH]2)cc1` . 72.2 nM
